Target: Signal transducer and activator of transcription 1-alpha/beta (Homo sapiens, UniProt P42224)
Sequence (P42224 whole entry): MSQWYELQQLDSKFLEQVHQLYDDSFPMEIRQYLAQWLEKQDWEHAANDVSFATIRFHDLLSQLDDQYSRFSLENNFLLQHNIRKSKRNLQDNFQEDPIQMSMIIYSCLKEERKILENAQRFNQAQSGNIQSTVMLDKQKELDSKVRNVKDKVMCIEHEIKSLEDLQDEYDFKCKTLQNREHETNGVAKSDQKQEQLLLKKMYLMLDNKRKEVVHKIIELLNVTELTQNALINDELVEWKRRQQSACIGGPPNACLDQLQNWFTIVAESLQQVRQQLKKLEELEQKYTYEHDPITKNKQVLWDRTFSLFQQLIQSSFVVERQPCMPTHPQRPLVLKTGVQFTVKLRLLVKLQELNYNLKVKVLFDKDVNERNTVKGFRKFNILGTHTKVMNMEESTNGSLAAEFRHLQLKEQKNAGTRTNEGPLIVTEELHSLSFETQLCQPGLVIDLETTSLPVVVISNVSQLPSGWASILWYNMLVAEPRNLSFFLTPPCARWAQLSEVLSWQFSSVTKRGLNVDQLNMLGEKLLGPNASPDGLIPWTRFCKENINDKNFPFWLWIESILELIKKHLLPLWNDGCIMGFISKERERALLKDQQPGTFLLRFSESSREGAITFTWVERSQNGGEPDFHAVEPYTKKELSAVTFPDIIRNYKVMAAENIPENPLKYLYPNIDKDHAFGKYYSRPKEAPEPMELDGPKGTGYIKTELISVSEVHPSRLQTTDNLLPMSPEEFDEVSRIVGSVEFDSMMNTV
Test: PubChem AID 1396
Measurement Name: IC50 (µM)
Answers are plain numbers, in µM.

Request: What does the record list as IC50 for CCN1C(=O)C(=CNNC(=O)c2ccncc2)C(=O)N(CC)C1=S ?
Result: 4.42
